TRKA kinase (Homo sapiens (Human)) measurements of pIC50, listed per entry.
Sequence (P04629 33-796): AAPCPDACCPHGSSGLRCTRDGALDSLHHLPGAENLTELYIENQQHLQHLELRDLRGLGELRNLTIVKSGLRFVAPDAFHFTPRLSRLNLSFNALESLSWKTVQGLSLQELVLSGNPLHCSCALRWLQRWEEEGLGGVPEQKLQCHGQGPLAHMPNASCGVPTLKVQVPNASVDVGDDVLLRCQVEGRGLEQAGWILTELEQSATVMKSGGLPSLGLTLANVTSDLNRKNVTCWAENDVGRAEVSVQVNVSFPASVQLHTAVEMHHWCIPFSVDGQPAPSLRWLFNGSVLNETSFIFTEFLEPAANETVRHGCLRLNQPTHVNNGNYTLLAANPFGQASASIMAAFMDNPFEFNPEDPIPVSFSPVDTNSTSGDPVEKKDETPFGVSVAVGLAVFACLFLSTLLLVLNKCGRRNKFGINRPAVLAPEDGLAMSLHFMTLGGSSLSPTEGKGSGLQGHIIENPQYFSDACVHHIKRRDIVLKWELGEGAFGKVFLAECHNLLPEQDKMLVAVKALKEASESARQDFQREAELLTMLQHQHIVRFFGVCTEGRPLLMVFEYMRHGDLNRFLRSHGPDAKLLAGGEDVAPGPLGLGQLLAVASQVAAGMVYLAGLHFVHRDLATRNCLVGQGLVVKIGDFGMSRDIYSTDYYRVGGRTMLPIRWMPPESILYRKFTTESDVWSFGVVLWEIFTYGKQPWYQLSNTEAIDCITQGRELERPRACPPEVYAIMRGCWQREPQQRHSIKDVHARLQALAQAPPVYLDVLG
pIC50: −log10 of the molar value.
parameter.measured: pIC50

| compound | parameter.measured | result |
| --- | --- | --- |
| COc1ccn(-c2ccc(F)cc2)c(=O)c1C(=O)Nc1ccc(Oc2ccnc3cc(OCCCC#N)c4c(c23)OCCO4)cc1Cl | pIC50 | > 7.30 |
| CCn1cc(C(=O)Nc2ccc(Oc3ccnc4ccc5c(c34)OCCO5)cc2F)c(=O)n(-c2ccc(F)cc2)c1=O | pIC50 | 6.30 to 7.30 |
| CCn1cc(C(=O)Nc2ccc(Oc3ccnc4cc(OC)c5c(c34)OCCO5)c(F)c2)c(=O)n(-c2ccc(F)cc2)c1=O | pIC50 | > 7.30 |
| COc1ccn(-c2ccc(F)cc2)c(=O)c1C(=O)Nc1ccc(Oc2ccnc3cc(OCCCN4CCCCC4)c4c(c23)OCCO4)cc1Cl | pIC50 | > 7.30 |
| CCOc1ccn(-c2ccc(F)cc2)c(=O)c1C(=O)Nc1ccc(Oc2ccnc3cc(OCCCC#N)c4c(c23)OCCO4)cc1Cl | pIC50 | > 7.30 |
| O=C(Nc1ccc(Oc2ccnc3cc(OCCCN4CCCCC4)c4c(c23)OCCO4)cc1Cl)c1cccn(-c2ccc(F)cc2)c1=O | pIC50 | > 7.30 |
| CCOc1ccn(-c2ccc(F)cc2)c(=O)c1C(=O)Nc1ccc(Oc2ccnc3cc(OC4CCOC4)c4c(c23)OCCO4)c(F)c1 (stereo not shown) | pIC50 | > 7.30 |
| Cn1cc(C(=O)Nc2ccc(Oc3ccnc4cc(OCC5CC5)c5c(c34)OCCO5)c(F)c2)c(=O)n(-c2ccc(F)cc2)c1=O | pIC50 | 6.30 to 7.30 |
| CCOc1ccn(-c2ccc(F)cc2)c(=O)c1C(=O)Nc1ccc(Oc2ccnc3cc(OCCCN4CCC(C)(N)CC4)c4c(c23)OCCO4)c(F)c1 | pIC50 | > 7.30 |
| CC(C)n1cc(C(=O)Nc2ccc(Oc3ccnc4cc(OCCCC#N)c5c(c34)OCCO5)c(F)c2)c(=O)n(-c2ccc(F)cc2)c1=O | pIC50 | 6.30 to 7.30 |
| COCCOc1cc2nccc(Oc3ccc(NC(=O)c4c(OC)ccn(-c5ccc(F)cc5)c4=O)cc3F)c2c2c1OCCO2 | pIC50 | > 7.30 |
| CC(C)n1cc(C(=O)Nc2ccc(Oc3ccnc4cc(OCCCN5CCOCC5)c5c(c34)OCCO5)c(Cl)c2)c(=O)n(-c2ccc(F)cc2)c1=O | pIC50 | > 7.30 |
| CC(C)n1cc(C(=O)Nc2ccc(Oc3ccnc4cc(OCCO)c5c(c34)OCCO5)c(F)c2)c(=O)n(-c2ccc(F)cc2)c1=O | pIC50 | > 7.30 |

---

Reported IC50, c-MET kinase (Homo sapiens (Human), UniProt P08581).

| molecule.smiles | tested.on | IC50 |
| --- | --- | --- |
| CCOc1cn(-c2ccc(F)cc2C)nc1C(=O)Nc1ccc(Oc2ccnc3cc(OC)c4c(c23)OCCO4)c(F)c1 | c-MET kinase (Homo sapiens (Human), UniProt P08581) | 50 to 500 nM |
| COc1cc2nccc(Oc3ccc(NC(=O)c4cn(C)c(=O)n(-c5ccc(F)cc5)c4=O)cc3)c2c2c1OCCO2 | c-MET kinase (Homo sapiens (Human), UniProt P08581) | ≤ 50 nM |
| CCOc1ccn(-c2ccc(F)cc2)c(=O)c1C(=O)Nc1ccc(Oc2ccnc3cc(OCC4CC4)c4c(c23)OCCO4)c(F)c1 | c-MET kinase (Homo sapiens (Human), UniProt P08581) | ≤ 50 nM |
| O=C(Nc1ccc(Oc2ccnc3cc(OCCCN4CCOCC4)c4c(c23)OCCO4)cc1Cl)c1cccn(-c2ccc(F)cc2)c1=O | c-MET kinase (Homo sapiens (Human), UniProt P08581) | ≤ 50 nM |
| COCCOc1cc2nccc(Oc3ccc(NC(=O)c4cccn(-c5ccc(F)cc5)c4=O)cc3F)c2c2c1OCCO2 | c-MET kinase (Homo sapiens (Human), UniProt P08581) | ≤ 50 nM |
| COc1ccn(-c2ccc(F)cc2)c(=O)c1C(=O)Nc1ccc(Oc2ccnc3cc(OCC(C)(C)O)c4c(c23)OCCO4)cc1Cl | c-MET kinase (Homo sapiens (Human), UniProt P08581) | ≤ 50 nM |
| COc1cc2nccc(Oc3ccc(NC(=O)c4cn(C(C)C)c(=O)n(-c5ccccc5F)c4=O)cc3F)c2c2c1OCCO2 | c-MET kinase (Homo sapiens (Human), UniProt P08581) | ≤ 50 nM |
| CC(C)n1cc(C(=O)Nc2ccc(Oc3ccnc4cc(OCC(C)(C)O)c5c(c34)OCCO5)c(F)c2)c(=O)n(-c2ccc(F)cc2)c1=O | c-MET kinase (Homo sapiens (Human), UniProt P08581) | ≤ 50 nM |
| Cn1cc(C(=O)Nc2ccc(Oc3ncnc4cc(OCCCN5CCOCC5)c5c(c34)OCCO5)c(F)c2)c(=O)n(-c2ccc(F)cc2)c1=O | c-MET kinase (Homo sapiens (Human), UniProt P08581) | ≤ 50 nM |
| CCn1cc(C(=O)Nc2ccc(Oc3ccnc4cc(OC)c5c(c34)OCCO5)cc2)c(=O)n(-c2ccc(F)cc2)c1=O | c-MET kinase (Homo sapiens (Human), UniProt P08581) | ≤ 50 nM |
| COc1cc2ncnc(Oc3ccc(NC(=O)c4cn(C)c(=O)n(-c5ccc(F)cc5)c4=O)cc3F)c2c2c1OCCO2 | c-MET kinase (Homo sapiens (Human), UniProt P08581) | ≤ 50 nM |
| CCOc1ccn(-c2ccc(F)cc2)c(=O)c1C(=O)Nc1ccc(Oc2ccnc3cc(OCCCO)c4c(c23)OCCO4)c(F)c1 | c-MET kinase (Homo sapiens (Human), UniProt P08581) | ≤ 50 nM |
| CCn1cc(C(=O)Nc2ccc(Oc3ccnc4cc(OCCOC)c5c(c34)OCCO5)cc2F)c(=O)n(-c2ccc(F)cc2)c1=O | c-MET kinase (Homo sapiens (Human), UniProt P08581) | ≤ 50 nM |
